Source of measurements: patent US20090099195A1

# assay-target: hP2X3 (human Purinergic P2X receptors subtype 3), clone B (Homo sapiens, UniProt P56373)
# protocol-text: hP2X3 FLIPR calcium (Fluo-4) antagonist assay, clone B
# protocol-conditions: Human P2X3 FLIPR Clone B IC50 (nM), RLE cells expressing hP2X3 clone B (NM_002559); agonist 500 nM α,β-methylene-ATP
# maps each entry to its IC50

- compound: "CCN(c1nc(N2CCN(C(C)=O)CC2)nc2c1CN(C(C)C)C2=O)C(C)c1ccc2ncccc2c1 (single isomer, unassigned) [Example 257]"
  IC50 / nM: 80
- compound: "CC(=O)N(Cc1cc2ccccc2cn1)c1nc(N2CCN(C(C)=O)[C@H](C)C2)nc2c1CN(C(C)C)C2=O [Example 326]"
  IC50 / nM: 590
- compound: "CCOc1ccc([C@@H](C)Nc2nc(N3CCN(C(C)=O)CC3)nc3c2CN([C@@H](C)CC)C3=O)cc1F [Example 320]"
  IC50 / nM: 54
- compound: "COc1ccc(C2CCCN2c2nc(N3CCN(C(C)=O)CC3)nc3c2CN(C(C)C)C3=O)cc1C (stereo not shown) [Example 295]"
  IC50 / nM: 730
- compound: "CC(C)N1Cc2c(NCc3cnc4ccccc4c3)nc(N3CCN(C(=O)C4CC4)CC3)nc2C1=O [Example 222]"
  IC50 / nM: 6300
- compound: "CC(C)N1Cc2c(NCc3cnc4ccccc4c3)nc(N3CCNC(=O)C3)nc2C1=O [Example 206]"
  IC50 / nM: 3200
- compound: "CC(=O)N1CCN(c2nc3c(c(N(Cc4cc5ccccc5cn4)CC(F)F)n2)CN(C(C)C)C3=O)CC1 [Example 256]"
  IC50 / nM: 46

----------
# assay-target: hP2X3 (human Purinergic P2X receptors subtype 3), clone A (Homo sapiens)
# protocol-text: hP2X3 FLIPR calcium (Fluo-4) antagonist assay, clone A
# protocol-conditions: Human P2X3 FLIPR Clone A Mean IC50 (nM), RLE cells expressing hP2X3 clone A (AB016608); agonist 500 nM α,β-methylene-ATP
// boundary case: IC50 equal to 200 nM maps to false; strictly smaller maps to true

- compound: "CC(=O)N1CCN(c2nc(N[C@H](C)c3ccc(OCC4CC4)c(F)c3)c3c(n2)C(=O)N(C(C)C)C3)CC1"
  class-assignment: "false"
- compound: "CCN(c1nc(N2CCN(C(C)=O)CC2)nc2c1CN(C(C)C)C2=O)C(C)c1ccc2ncccc2c1 (single isomer, unassigned) [Example 257]"
  class-assignment: "true"
- compound: "CC(=O)N1CCN(c2nc(N[C@H](C)c3cccc(OC(F)F)c3)c3c(n2)C(=O)N(C(C)C)C3)CC1"
  class-assignment: "true"
- compound: "COCc1ccc(CC2CCCN2c2nc(N3CCN(C(C)=O)CC3)nc3c2CN(C(C)C)C3=O)cc1 (stereo not drawn)"
  class-assignment: "false"
- compound: "CCOc1ccc([C@H]2CCCN2c2nc(N3CCN(C(C)=O)CC3)nc3c2CN(C(C)C)C3=O)cc1F"
  class-assignment: "true"
- compound: "COc1ccc(C2CCCN2c2nc(N3CCN(C(C)=O)CC3)nc3c2CN(C(C)C)C3=O)cc1 (stereo not drawn)"
  class-assignment: "false"
- compound: "CCOc1ccc([C@@H](C)N(C)c2nc(N3CCN(C(C)=O)CC3)nc3c2CN(C(C)C)C3=O)cc1F"
  class-assignment: "true"
- compound: "CCC(C)N1Cc2c(nc(N3CCN(C(C)=O)CC3)nc2N(CC)Cc2cc3ccccc3cn2)C1=O (single isomer, unassigned) [Example 318]"
  class-assignment: "true"
- compound: "CCOc1ccc([C@@H](C)Nc2nc(N3CCN(CC)C(=O)C3)nc3c2CN(C(C)C)C3=O)cc1"
  class-assignment: "false"
- compound: "CC(=O)N1CCN(c2nc(N[C@H](C)c3ccc(CO)cc3)c3c(n2)C(=O)N(C(C)C)C3)CC1"
  class-assignment: "false"
- compound: "CC(C)N1Cc2c(nc(N3CCN(CC(F)(F)F)C(=O)C3)nc2N(C)Cc2cc3ccccc3cn2)C1=O"
  class-assignment: "false"
- compound: "CC(=O)N1CCN(c2nc(N[C@H](C)c3ccc4c(c3)OC(F)(F)O4)c3c(n2)C(=O)N(C(C)C)C3)CC1"
  class-assignment: "false"
- compound: "CCOc1ccc(CNc2nc(N3CCN(C(C)=O)CC3)nc3c2CN(C(C)C)C3=O)c(OC)c1"
  class-assignment: "false"
- compound: "CCOc1ccc([C@@H](C)Nc2nc(N3CCN(C)C(=O)C3)nc3c2CN(C(C)C)C3=O)cc1F"
  class-assignment: "false"

----------
# assay-target: hP2X3 (human Purinergic P2X receptors subtype 3), clone B (Homo sapiens, UniProt P56373)
# Sequence (P56373 1-397): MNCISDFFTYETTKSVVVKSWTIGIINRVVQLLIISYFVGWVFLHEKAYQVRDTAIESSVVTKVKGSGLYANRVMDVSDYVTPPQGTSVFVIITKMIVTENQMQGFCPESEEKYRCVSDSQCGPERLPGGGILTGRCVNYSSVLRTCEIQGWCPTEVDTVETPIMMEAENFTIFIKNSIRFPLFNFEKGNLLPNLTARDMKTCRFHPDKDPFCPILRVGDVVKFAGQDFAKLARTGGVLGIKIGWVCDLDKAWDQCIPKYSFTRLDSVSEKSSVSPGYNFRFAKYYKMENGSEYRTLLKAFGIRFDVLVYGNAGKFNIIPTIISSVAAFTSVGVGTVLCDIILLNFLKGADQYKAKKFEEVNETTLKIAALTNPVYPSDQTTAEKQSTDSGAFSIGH
# protocol-text: hP2X3 FLIPR calcium (Fluo-4) antagonist assay, clone B
# protocol-conditions: Human P2X3 FLIPR Clone B IC50 (nM), RLE cells expressing hP2X3 clone B (NM_002559); agonist 500 nM α,β-methylene-ATP
IC50: recorded values

- molecule: "CCOc1ccccc1[C@@H](C)Nc1nc(N2CCN(C(C)=O)CC2)nc2c1CN(C(C)C)C2=O"
  IC50, nM: 5400
- molecule: "CC(=O)N1CCN(c2nc3c(c(N4CCCC4Cc4cccc(Cl)c4)n2)CN(C(C)C)C3=O)CC1 (stereo not drawn)"
  IC50, nM: 300
- molecule: "CC(=O)N1CCN(c2nc(NCc3ccc4ncccc4c3)c3c(n2)C(=O)N(C(C)C)C3)CC1"
  IC50, nM: 83
- molecule: "CCC(C)N1Cc2c(NC(C)(C)Cc3ccc(F)cc3)nc(N3CCN(C(C)=O)CC3)nc2C1=O (stereo not drawn)"
  IC50, nM: 160
- molecule: "COc1ccc(CC(C)(C)Nc2nc(N3CCN(C(C)=O)CC3)nc3c2CN(C(C)C)C3=O)cc1"
  IC50, nM: 90
- molecule: "COCC(C)N1Cc2c(NC(C)(C)Cc3ccc(F)cc3)nc(N3CCN(C(C)=O)CC3)nc2C1=O (stereo not drawn)"
  IC50, nM: 670
- molecule: "CCOc1ccc([C@H](CO)Nc2nc(N3CCN(C(C)=O)CC3)nc3c2CN(C(C)C)C3=O)cc1"
  IC50, nM: 5800
- molecule: "CC(C)N1Cc2c(NCc3cnc4ccccc4c3)nc(N3CCC(C(N)=O)CC3)nc2C1=O"
  IC50, nM: 2800
- molecule: "CC(=O)N1CCN(c2nc3c(c(N4CCC[C@@H]4C(=O)Oc4ccccc4)n2)CN(C(C)C)C3=O)CC1"
  IC50, nM: 71
- molecule: "CC(=O)N1CCN(c2nc3c(c(N4CCCC4c4ccc(C)cc4)n2)CN(C(C)C)C3=O)CC1 (stereo not drawn)"
  IC50, nM: 1400
- molecule: "CC(=O)N1CCN(c2nc(N[C@H](C)c3ccc4ncccc4c3)c3c(n2)C(=O)N(C(C)C)C3)CC1"
  IC50, nM: 36
- molecule: "CC(=O)N1CCN(c2nc3c(c(N4CCCC4c4ccc5ncccc5c4)n2)CN(C(C)C)C3=O)CC1 (stereo not drawn) [Example 281]"
  IC50, nM: 140
- molecule: "CCN1CCN(c2nc(NC(c3ccccc3)c3ccc(Cl)cc3)c3c(n2)C(=O)N(C(C)C)C3)CC1 (stereo not drawn)"
  IC50, nM: 180
- molecule: "CC(=O)N1CCN(c2nc(N[C@H](C)c3cccc(OC(F)F)c3)c3c(n2)C(=O)N(C(C)C)C3)CC1"
  IC50, nM: 320
- molecule: "CC(C)N1Cc2c(NCc3cnc4ccccc4c3)nc(N3CCN(C)C(=O)C3)nc2C1=O"
  IC50, nM: 320

----------
# assay-target: hP2X3 (human Purinergic P2X receptors subtype 3), clone B (Homo sapiens)
# protocol-text: hP2X3 FLIPR calcium (Fluo-4) antagonist assay, clone B
# protocol-conditions: Human P2X3 FLIPR Clone B IC50 (nM), RLE cells expressing hP2X3 clone B (NM_002559); agonist 500 nM α,β-methylene-ATP
Each record here notes measured IC50.

- compound: "CC(=O)N1CCN(c2nc(N[C@H](C)c3ccc(C#N)cc3)c3c(n2)C(=O)N(C(C)C)C3)CC1 [Example 351]"
  IC50 (nM): 3300
- compound: "CC(C)N1Cc2c(NC(C)(C)Cc3ccc(Cl)cc3)nc(N3CCN(C=O)CC3)nc2C1=O [Example 128]"
  IC50 (nM): 280
- compound: "COc1cccc(CC2CCCN2c2nc(N3CCN(C(C)=O)CC3)nc3c2CN(C(C)C)C3=O)c1 (stereo not drawn) [Example 291]"
  IC50 (nM): 490
- compound: "CC(=O)N1CCN(c2nc3c(c(N4CCCC4c4ccc5ncccc5c4)n2)CN(C(C)C)C3=O)CC1 (single isomer, unassigned) [Example 285]"
  IC50 (nM): 100
- compound: "CC(=O)N1CCN(c2nc(NCc3cncc4ccccc34)c3c(n2)C(=O)N(C(C)C)C3)CC1 [Example 229]"
  IC50 (nM): 120
- compound: "CC1CN(c2nc(NC(c3ccccc3)c3ccccc3)c3c(n2)C(=O)N(C(C)C)C3)CC(C)O1 (stereo not drawn) [Example 86]"
  IC50 (nM): 280
- compound: "CC(C)N1Cc2c(NC(c3ccccc3)c3ccc(Cl)cc3)nc(NCCN(C)C)nc2C1=O (stereo not drawn) [Example 9]"
  IC50 (nM): 91
- compound: "CC(=O)N1CCN(c2nc(NCc3ccc(C(C)C)cc3)c3c(n2)C(=O)N(C(C)C)C3)CC1 [Example 43]"
  IC50 (nM): 650
- compound: "CCOc1ccc([C@@H](C)Nc2nc(N3CCN(C(C)=O)CC3)nc3c2CN(C(C)C)C3=O)c(C)c1 [Example 168]"
  IC50 (nM): 80
- compound: "CC(=O)N(Cc1cc2ccccc2cn1)c1nc(N2CCN(C(C)=O)[C@@H](C)C2)nc2c1CN(C(C)C)C2=O [Example 325]"
  IC50 (nM): 380
- compound: "CC(=O)N1CCN(c2nc3c(c(N(Cc4cc5ccccc5cn4)C(C)C)n2)CN(C(C)C)C3=O)CC1 [Example 254]"
  IC50 (nM): 75
- compound: "CC(=O)N1CCN(c2nc3c(c(N4CCCC4Cc4ccccc4)n2)CN(C(C)C)C3=O)CC1 (stereo not drawn) [Example 54]"
  IC50 (nM): 240
- compound: "CC(=O)N1CCN(c2nc(NC(C)c3ccc(C(C)C)cc3)c3c(n2)C(=O)N(C(C)C)C3)CC1 (stereo not drawn) [Example 40]"
  IC50 (nM): 310
- compound: "CC(=O)N1CCN(c2nc3c(c(N4CCCCC4Cc4ccccc4)n2)CN(C(C)C)C3=O)CC1 (stereo not drawn) [Example 266]"
  IC50 (nM): 1000
- compound: "CC(=O)N1CCN(c2nc(N[C@H](C)c3ccc(Cl)c(C(F)(F)F)c3)c3c(n2)C(=O)N(C(C)C)C3)CC1 [Example 171]"
  IC50 (nM): 290
